Conditions: in tert-amyl alcohol, 283.15 K
reported-endpoint: solubility (mole fraction)
Please give the numeric answer without any surrounding text.

query: # query: solubility (mole fraction) of entry Cc1ccc(NC(=O)/C(=C/Cl)Sc2ccccc2)cc1
result: 0.0015

###

Conditions: in 1,2-dichloroethane, 278.15 K
reported-endpoint: solubility (mole fraction)
Please give the numeric answer without any surrounding text.

query: # query: solubility (mole fraction) of entry Cc1ccc(NC(=O)/C(=C/Cl)Sc2ccccc2)cc1
result: 0.0353

###

Conditions: in 2-methyltetrahydrofuran, 313.15 K
reported-endpoint: solubility (mole fraction)
Please give the numeric answer without any surrounding text.

query: # query: solubility (mole fraction) of entry Cc1ccc(NC(=O)/C(=C/Cl)Sc2ccccc2)cc1
result: 0.126

###

Conditions: in ethyl acetate, 293.15 K
reported-endpoint: solubility (mole fraction)
Please give the numeric answer without any surrounding text.

query: # query: solubility (mole fraction) of entry Cc1ccc(NC(=O)/C(=C/Cl)Sc2ccccc2)cc1
result: 0.0331

###

Conditions: in tert-amyl alcohol, 318.15 K
reported-endpoint: solubility (mole fraction)
Please give the numeric answer without any surrounding text.

query: # query: solubility (mole fraction) of entry Cc1ccc(NC(=O)/C(=C/Cl)Sc2ccccc2)cc1
result: 0.0129

###

Settings: in MTBE, 278.15 K
reported-endpoint: solubility (mole fraction)
Please give the numeric answer without any surrounding text.

query: # query: solubility (mole fraction) of entry Cc1ccc(NC(=O)/C(=C/Cl)Sc2ccccc2)cc1
result: 0.0068

###

Conditions: in acetone, 313.15 K
reported-endpoint: solubility (mole fraction)
Please give the numeric answer without any surrounding text.

query: # query: solubility (mole fraction) of entry Cc1ccc(NC(=O)/C(=C/Cl)Sc2ccccc2)cc1
result: 0.0889

###

Conditions: in ethyl acetate, 278.15 K
reported-endpoint: solubility (mole fraction)
Please give the numeric answer without any surrounding text.

query: # query: solubility (mole fraction) of entry Cc1ccc(NC(=O)/C(=C/Cl)Sc2ccccc2)cc1
result: 0.0187

###

Conditions: in methyl acetate, 318.15 K
reported-endpoint: solubility (mole fraction)
Please give the numeric answer without any surrounding text.

query: # query: solubility (mole fraction) of entry Cc1ccc(NC(=O)/C(=C/Cl)Sc2ccccc2)cc1
result: 0.0797

###

Conditions: in MTBE, 313.15 K
reported-endpoint: solubility (mole fraction)
Please give the numeric answer without any surrounding text.

query: # query: solubility (mole fraction) of entry Cc1ccc(NC(=O)/C(=C/Cl)Sc2ccccc2)cc1
result: 0.0223

###

Conditions: in acetone, 318.15 K
reported-endpoint: solubility (mole fraction)

query: # query: solubility (mole fraction) of entry Cc1ccc(NC(=O)/C(=C/Cl)Sc2ccccc2)cc1
result: 0.114

###

Conditions: in tert-amyl alcohol, 308.15 K
reported-endpoint: solubility (mole fraction)
Please give the numeric answer without any surrounding text.

query: # query: solubility (mole fraction) of entry Cc1ccc(NC(=O)/C(=C/Cl)Sc2ccccc2)cc1
result: 0.0068

###

Settings: in acetone, 293.15 K
reported-endpoint: solubility (mole fraction)

query: # query: solubility (mole fraction) of entry Cc1ccc(NC(=O)/C(=C/Cl)Sc2ccccc2)cc1
result: 0.0364

###

Details: in toluene, 278.15 K
reported-endpoint: solubility (mole fraction)
Please give the numeric answer without any surrounding text.

query: # query: solubility (mole fraction) of entry Cc1ccc(NC(=O)/C(=C/Cl)Sc2ccccc2)cc1
result: 0.014

###

Conditions: in acetone, 288.15 K
reported-endpoint: solubility (mole fraction)

query: # query: solubility (mole fraction) of entry Cc1ccc(NC(=O)/C(=C/Cl)Sc2ccccc2)cc1
result: 0.0296

###

Details: in THF, 308.15 K
reported-endpoint: solubility (mole fraction)
Please give the numeric answer without any surrounding text.

query: # query: solubility (mole fraction) of entry Cc1ccc(NC(=O)/C(=C/Cl)Sc2ccccc2)cc1
result: 0.171

###

Conditions: in ethyl acetate, 298.15 K
reported-endpoint: solubility (mole fraction)
Please give the numeric answer without any surrounding text.

query: # query: solubility (mole fraction) of entry Cc1ccc(NC(=O)/C(=C/Cl)Sc2ccccc2)cc1
result: 0.0409

###

Conditions: in 1,2-dichloroethane, 308.15 K
reported-endpoint: solubility (mole fraction)
Please give the numeric answer without any surrounding text.

query: # query: solubility (mole fraction) of entry Cc1ccc(NC(=O)/C(=C/Cl)Sc2ccccc2)cc1
result: 0.115
